Taken from the supplement of paper PMC12764529.

- measurement-protocol: folding stability dG unfold (combined trypsin and chymotrypsin); higher = more stable
Collected folding stability dG unfold values appear next to each entry.
observation-type: folding stability dG unfold (kcal/mol)

{"sequence-text": "SAGGSAKVIVEELPDGSIKIYFPETGAVIVLNPETGEAVVFVNPKKKNNEPPSLDDVLKAAKEALGSAGGSA [r15_735_TrMRF]", "units-label": "kcal/mol", "readout-qualifier": "=", "experimental-value": 1.28}
{"sequence-text": "SAGSEIYEAAKAGKKATVPVETTLTEVTEESVTPLGGPTLKAREVARTTFNAKLTKFDPKTGKITTDLPSAG [r5_5_JUSTAS]", "units-label": "kcal/mol", "readout-qualifier": "<", "experimental-value": -1}
{"sequence-text": "SAGGSMLFLRVRIEVRPPTAEDLAEGKEVKEVEILVEFDSVEELKEALEKLPPNAKVEVELVELEESAGGSA [r2_25_TrROS_Hall]", "units-label": "kcal/mol", "readout-qualifier": "=", "experimental-value": 2.83}
{"sequence-text": "SAGGSAGGSAGGMKITLKVKKPDGTTTTITVDIDESKIEEIKEEIAPKGYEVEEAEIELESAGGSAGGSAGG [r7_159_JUSTAS]", "units-label": "kcal/mol", "readout-qualifier": "=", "experimental-value": 0.00742}
{"sequence-text": "SAGGTVREIKEILKEKGWPVKNVEPGPNGNYTVQLRRPRGKPFKINIPSDNPEEQQALREAIPPDFVSAGGS [r16_821_TrROS]", "units-label": "kcal/mol", "readout-qualifier": "<", "experimental-value": -1}
{"sequence-text": "SAGGSAGGSAGKIEVEGDVEVTVFPPYGLATVTTPNGERYVLLVETRPDGSKRVLLFSAGSAGGSAGGSAGG [r11_331_TrMRF]", "units-label": "kcal/mol", "readout-qualifier": "=", "experimental-value": 2.26}
{"sequence-text": "SAKKTITITKITLTLFNKDGKPVATAEITSIEITYDPKTNTFTITATVKVTLPNGKTFTFKLTITLPVKSAG [r14_609_TrROS_Hall]", "units-label": "kcal/mol", "readout-qualifier": "=", "experimental-value": 4.55}

----------
- measurement-protocol: folding stability dG unfold from trypsin proteolysis; higher = more stable
Collected folding stability dG unfold values appear next to each entry.
observation-type: folding stability dG unfold (kcal/mol)

{"sequence-text": "SAGGKTIEVWFLFPPGMPPEEVASTIAKLLPPGFKIDVEILEVQPDPGGEDYIIFKATIYYPDDGQPISAGG [r13_12_TrROS]", "experimental-value": 3.34}
{"sequence-text": "SAGGKVEIYNPNGQWKEITPEDLEGLKPGTIWQMPNGPVMIEIPGNDETIPIPMDSPNDIKDAIKDALSAGG [r13_962_TrROS]", "experimental-value": 0.246}
{"sequence-text": "SAGGMIELTIVVKTKEEAEKAAEELARKLAEELGVEVTVTSVEVEEVEDPETGETYLVVRVRIEVKPSAGGS [r8_171_TrROS_Hall]", "experimental-value": 4.75}
{"sequence-text": "SAATSSTSISIPASTTSLEDVRATLAALGYPPERIVALEVVKVEPGSTKITVTLERPDGTRRTVTVTSASAG [r14_30_JUSTAS]", "experimental-value": 3.14}
{"sequence-text": "SAGGSAGGSAMKPGEVIEIEITDKETGKKIKAEIVLKDGKLYIKIYNENGELIAEIEIEIKDSAGGSAGGSA [r18_264_TrROS_Hall]", "experimental-value": 2.83}
{"sequence-text": "SKIEIEVFPEEGFIRIRLEAENLTEEELKDAIIEFIKSLGFPAEVEILRIEPSGNTIRIEALVKVEPGYLSA [r9_347_TrMRF]", "experimental-value": 3.27}
{"sequence-text": "SAMKIKVPPGAEIITEDGEKIEPGQEVEVTDIEFDEETGEVHITVKIKNPETGEEIEEKVTIRFPKEEESAG [r14_258_TrROS_Hall]", "experimental-value": 1.29}
{"sequence-text": "SAGLPIPEGATVKTLESSESVEGNKTVKTDKIIVTFPDGSTKEVEVVTTYDPNGNPTTTYIVGNKKIPLSAG [r5_507_JUSTAS]", "experimental-value": 1.45}
{"sequence-text": "SAGMKIVEIEKKEDGTVKIKIEVNGEEKEIEVKVGETITLPDGSEIEVLEDGTIKVRPLPEPEVEEEESAGG [r19_17_TrROS_Hall]", "experimental-value": 3.24}
{"sequence-text": "SAGGSAGGSADAVVVEVTLPGGGKARAVFFPDGSVVIVVDFPDGRRAVIFLENNEIVVLPVDSAGGSAGGSA [r18_285_TrMRF]", "experimental-value": 3.73}
{"sequence-text": "SAGGSAGGEEIAKKLRDLAKKLGLDVEIKKIEVTKYPLPEGDENKEEKWVTTITITVNGKKITLSAGGSAGG [r6_686_TrROS_Hall]", "experimental-value": 2.22}
{"sequence-text": "SAGGSAGGIEAVREALEDMPPGEEKEITIPVPGDPNYYIKFTIRTKGNKIKIPIEIEPMPPGQMSAGGSAGG [r6_393_TrROS]", "experimental-value": 0.632}
{"sequence-text": "SAGMKPGEPITLVLPDGVVIPIKINPNGGVEIDDIEPPPDGTYNMDARHPNNGKEITLNIKLPPGFQILSAG [r5_394_TrROS]", "experimental-value": 1.93}
{"sequence-text": "SAMTEEEKKKKKEEEEKKKRELKIIVVAKTKDGKWKKIAEFTVKNKDMSIEELVKKLKDLGVEEVKIFPSAG [r14_318_TrROS_Hall]", "experimental-value": 1.8}

----------
Collected folding stability dG unfold values appear next to each entry.
- measurement-protocol: folding stability dG unfold from trypsin proteolysis; higher = more stable
observation-type: folding stability dG unfold (kcal/mol)

{"sequence-text": "SAGGSAGGSAGGRFEVLGVEPLPGNWVRVRVRYPGLGREATFLVRVSSLPLPPVDLDRFDSAGGSAGGSAGG [r11_986_TrMRF]", "experimental-value": 1.82}
{"sequence-text": "SAGGEVKVEIEVELNEDGTLRVRARVEVRVDGELVTVEVEIEVRLEPAPPPAPPPVLVVDPETGEILSAGGS [r8_269_TrROS_Hall]", "experimental-value": 3.29}
{"sequence-text": "SAGGGMTPVKKEYVVTLPVPPGMTEEEARELAERAAEELRPELEAKGLAYEVTFELSPEGLVTVTVVASAGG [r13_529_JUSTAS]", "experimental-value": 2.19}
{"sequence-text": "SAGGMIKITVTLPDPARVRALFAELGLDVEVTPLPDGSVEIYLPEEYKEKVVEALPEEEVEITPVPPLSAGG [r13_261_JUSTAS]", "experimental-value": 2.5}

----------
- measurement-protocol: folding stability dG unfold (combined trypsin and chymotrypsin); higher = more stable
Collected folding stability dG unfold values appear next to each entry.

{"sequence-text": "SAGKKSIVAPYEELKKIIELLPSGKKYKVIASDPNGKKIEGTIEVKGGKAKIEPGPKNTFKDLLIVITGSAG [r5_85_TrMRF]", "units-label": "kcal/mol", "readout-qualifier": "=", "folding stability dG unfold": 0.248}
{"sequence-text": "SAGPLKPGKTIEVPMEFTSPSDIVDELEKLPGIKDIEPTGIEPEPNPDGPPRIRVPFTFKIPKDGEPLSAGG [r19_221_TrROS]", "units-label": "kcal/mol", "readout-qualifier": "<", "folding stability dG unfold": -1}
{"sequence-text": "SAGGSAMPVEFPSEGVVEAVNPKTGKVYLIRYETGDTKTRFVIFEPGTGEVRVIDEDTTFEEAVEDSAGGSA [r15_234_TrMRF]", "units-label": "kcal/mol", "readout-qualifier": "=", "folding stability dG unfold": 0.674}
{"sequence-text": "SAGMKTLEKTGSAAKIEEAIAAGKSLEEVFETAGKDGGTSRTLTEPNRTLTFSGETSKPGVATLTTIPESAG [r5_343_JUSTAS]", "units-label": "kcal/mol", "readout-qualifier": "=", "folding stability dG unfold": -0.0165}
{"sequence-text": "SAGGSLPVVDGPSDLVETTVYEDGTIEIKVERAEPPGVPTVRTLTITLEPPVGPPKVPPGNPKYLGSAGGSA [r2_368_JUSTAS]", "units-label": "kcal/mol", "readout-qualifier": "<", "folding stability dG unfold": -1}
{"sequence-text": "SAGGSAGGGKVKVELEPLEDDSYRLRITVELPDGSKIEKPVILPSNVPPELSAEKVAEEILKKESAGGSAGG [r6_895_TrMRF]", "units-label": "kcal/mol", "readout-qualifier": "=", "folding stability dG unfold": 0.228}
{"sequence-text": "SAGGSAGGSAGGTVKELMKKLPFGAQIEIDEIEHDKGRIEIPIRVENMPPEWREKLRKLSAGGSAGGSAGGS [r10_733_TrROS]", "units-label": "kcal/mol", "readout-qualifier": "=", "folding stability dG unfold": -0.305}
{"sequence-text": "SAGGSAGGSAPVFLRVEVENPNGERFELTAKLGDPIEIDPSVVDNVKVEVFDPDGNKAEFELNSAGGSAGGS [r12_380_TrMRF]", "units-label": "kcal/mol", "readout-qualifier": "=", "folding stability dG unfold": 0.506}
{"sequence-text": "SPSTTIPQTITLDTKLPNGKPATPEEVKAIAEEIVKKLEKEKGVKISINVKVTPVDSSGKYKLDITITIIKS [r1_231_JUSTAS]", "units-label": "kcal/mol", "readout-qualifier": "=", "folding stability dG unfold": 2.59}
{"sequence-text": "SAGGSAGGSAGGGSVTIEIEFEAKPGEKFTVTIKGFKKVEITEIYPFDGKVRIKVKVTPESAGGSAGGSAGG [r7_292_TrMRF]", "units-label": "kcal/mol", "readout-qualifier": "=", "folding stability dG unfold": 3.67}
{"sequence-text": "SAGGIKEFADTLQDHGGTVTVEPVNNGSLKVSIQHRDPEDGRMYRMEIEIPPENNKLEIDDWEPYPNSAGGS [r16_613_TrROS]", "units-label": "kcal/mol", "readout-qualifier": "=", "folding stability dG unfold": 0.0987}
{"sequence-text": "SAGGSAGEIEGEEAAKLVEDALRALDPNVRVEYEPLPGEKPLLLVRVYRVDPESGAETPLATLLIGSAGGSA [r15_682_TrMRF]", "units-label": "kcal/mol", "readout-qualifier": "=", "folding stability dG unfold": 2.4}
{"sequence-text": "SAGGSAGGSPMPVIEEVPLNPVEEKPDPSSNTLTVKYPDGTYRILTKNPDGSYSFKVLPSSSISAGGSAGGS [r12_351_JUSTAS]", "units-label": "kcal/mol", "readout-qualifier": "=", "folding stability dG unfold": 1.71}
{"sequence-text": "SAGATPTTLSFTDPEGKKIANVTVTVLPGGRQEASITNSDSNESYTAEYDPATGTWTLTFPDGTTLTVGSAG [r5_809_JUSTAS]", "units-label": "kcal/mol", "readout-qualifier": "=", "folding stability dG unfold": 1.58}
